Tested on: human AML cell lines (U937, THP-1, NOMO-1, SKM-1, NB4, and OCI-AML3)
test: Human AML cell line viability screen
Type: cell-based
runConditions: Homo sapiens, read-out: EC50 against human AML cell lines
pEC50: −log10 of the molar value.
propertyMeasured: pEC50

Note to self: pEC50 recorded for `CC[C@H](C)C(=O)O[C@H]1C[C@@H](C)C=C2C=C[C@H](C)[C@H](CC[C@@H]3C[C@@H](O)CC(=O)O3)[C@H]21` was < 5.70
